molecular target: T1, HLA-A*02:01 (human); experiment: UV-ligand exchange, anti-b2m ELISA; peptide exchange yield grade (+ >=10%, ++ >=20%, +++ >=50, ++++ >=75%)
T1 construct: Captured on streptavidin plates and detected with anti-b2m; also called peptide-receptive MHC molecules; MHC class I
Measured Attribute: peptide exchange yield

Exercise: For the binder SLNGNQVTV , what peptide exchange yield is on record?
Key: 10 to 20%

Exercise: // returns reported peptide exchange yield for input GQDVGRYQV
Key: 20 to 50%

Exercise: Given the entry LAYTLGVKQL , report its measured peptide exchange yield.
Key: 50 to 75%

Exercise: What does the data say about its peptide exchange yield? Entry: VVMEELLKV
Key: 20 to 50%

Exercise: # get_value(readout='peptide exchange yield', item= GLMKDIVGA )
Key: 50 to 75%

Exercise: Sample PAVLQSSGLYSL — what was its peptide exchange yield?
Key: 20 to 50%

Exercise: # input binder: LLANGVYAA ; wanted: its peptide exchange yield
Key: 10 to 20%

Exercise: # query: peptide exchange yield of entry ALQEALENA
Key: 20 to 50%

Exercise: Returns the measured peptide exchange yield for the input binder. Input: VLAEGGEGV
Key: 50 to 75%

Exercise: So what does the record say about peptide exchange yield for ALADGVVSQA ?
Key: 50 to 75%

Exercise: Please give the measured peptide exchange yield for this binder: LVRDTQSGSL
Key: 20 to 50%

Exercise: What does the record list as peptide exchange yield for FLPPAQVTV ?
Key: 20 to 50%

Exercise: Fill in: peptide exchange yield of SLYNLGGSKRISI is ___
Key: ≥ 75%

Exercise: // peptide exchange yield lookup, key: GLASRILDA
Key: 50 to 75%

Exercise: Entry under review: IVREFLTAL . Reported peptide exchange yield?
Key: 50 to 75%

Exercise: Looking for the measured peptide exchange yield of GLDVTSLRPFDL , can you help?
Key: 50 to 75%
